# System: HEK-293T
# Experimental protocol: Multiplex assay against HEK293T
# Format: toxicity, cell-based
# Condition set: human, 12 h, 10 µM, compound concentration 10 uM
Measurement kind: Population Membrane Permeable-Phenotype (%)

| Compound | Result |
| --- | --- |
| O=C(O)CCC/C=C\CC1C(O)CC(O)C1/C=C/C(O)COc1cccc(Cl)c1 (configuration not stated) | 0% |
| Cl.N=C(N)NC(=O)Cc1c(Cl)cccc1Cl [GUANFACINE HYDROCHLORIDE] | 0% |
| O=C1NC(NC23CC4CC(CC(C4)C2)C3)=N/C1=C\c1ccc2ncsc2c1 | 0% |
| CC(C)(C)c1cc(C(C)(C)C)c(NC(=O)c2c[nH]c3ccccc3c2=O)cc1O | 0% |
| Cc1ccc(/C(=C\CN2CCCC2)c2ccccn2)cc1 | 0% |
| CC1(COc2ccc3c(c2)ncn3-c2ccc3cccc(N4CCC(N)CC4)c3n2)COC1 | 0% |
| Cc1nc2ccc(Oc3ccc(F)cc3)cc2c(=O)n1C[C@H]1CCCN(C(C)C)C1.Cl | 0% |
| O=C(NCC(=O)N1CC[C@H](N[C@H]2CC[C@@](O)(c3ccc(-c4ncccn4)cn3)CC2)C1)c1cccc(C(F)(F)F)c1 | 0% |
| CC(C)(C)c1cc(NC(=O)Nc2ccc(-c3cn4c(n3)sc3cc(OCCN5CCOCC5)ccc34)cc2)no1 | 0% |
| Nc1nc(-c2ccco2)c2cnn(Cc3ccccc3F)c2n1 | 0% |
| CC(C)(c1ccc(O)cc1)c1ccc(O)cc1 | 0% |
| Cc1cc(C(C#N)c2ccc(Cl)cc2)c(Cl)cc1NC(=O)c1cc(I)cc(I)c1O (configuration not stated) | 0% |

* * *

Population Pyknosed Nuclei (%): recorded values
# Tested on: HEK-293T
# Experimental protocol: Multiplex assay against HEK293T
# Format: toxicity, cell-based
# Condition set: human, 48 h, 1 µM, compound concentration 1 uM

| Smiles input | Population Pyknosed Nuclei (%) |
| --- | --- |
| C[C@H](NC(=O)CNC(=O)c1cccc(Cl)c1)c1ccccc1 | 5 |
| Cc1cnc(-c2cc(N3CCN(C(=O)CCS(C)(=O)=O)CC3)ncc2Cl)c(C)c1 | 6 |
| Cc1cc(NC(=O)NCCN2CCC(O)(Cc3ccccc3)CC2)c2ccccc2n1 | 5 |
| COc1ccc2c(c1OCc1ccccc1)C[C@@H](C(=O)O)N(C(=O)C(c1ccccc1)c1ccccc1)C2 | 5 |
| Nc1nc(CC(=O)Nc2ccc(CCNC[C@H](O)c3ccccc3)cc2)cs1 | 5 |
| CC(C)(C)c1cc(NC(=O)Nc2ccc(-c3cn4c(n3)sc3cc(OCCN5CCOCC5)ccc34)cc2)no1 | 6 |
| N#Cc1c(Oc2cccc(OS(=O)(=O)CCCC(F)(F)F)c2)cccc1C(F)(F)F | 5 |

* * *

# Population Mitochondria Different-Phenotype (%) per entry
# Test system: Fibroblast
# Experimental protocol: Multiplex assay against human fibroblast
# Type: toxicity, cell-based
# Condition set: 12 h, 10 µM, compound concentration 10 uM
Measurement kind: Population Mitochondria Different-Phenotype (%)

| Compound | Result |
| --- | --- |
| Cc1cc(=O)n(C)c2cc(N3C(=O)CC[C@H](NS(=O)(=O)CC(C)C)[C@H]3c3ccc(Cl)cc3)ccc12 | 8% |
| COc1ccc2c(c1OCc1ccccc1)C[C@@H](C(=O)O)N(C(=O)C(c1ccccc1)c1ccccc1)C2 [OLODANRIGAN] | 7% |
| Cc1cnc(-c2cc(N3CCN(C(=O)CCS(C)(=O)=O)CC3)ncc2Cl)c(C)c1 | 2% |
| Cl.N=C(N)NC(=O)Cc1c(Cl)cccc1Cl [GUANFACINE HYDROCHLORIDE] | 5% |
| O=C1NC(NC23CC4CC(CC(C4)C2)C3)=N/C1=C\c1ccc2ncsc2c1 | 0% |
| Cc1ccccc1C(=O)Nc1ccc(C(=O)N2CCCC(N(C)C)c3ccccc32)cc1.Cl (stereo unspecified) | 12% |
